Species: Homo sapiens
Experiment: Inhibition of human topoisomerase 2 assessed as decrease in pBR322 mobility on agarose gel at 10 uM by electrophoresis
Reported inhibition values for the following compounds.
Answer with a number only, understood to be in %.

Please review the entries below; each comes with its answer.
COc1ccc2c(c1)/C(=N\OCCN1CCOCC1)c1c-2c(O)nc2ccccc12
0
COc1ccc2c(c1)/C(=N\OCCN1CCOCC1)c1c-2c(N2CCNCC2)nc2ccccc12
100

Incoming: Suppose we examine the compound "COc1ccc2c(c1)/C(=N\OCCN1CCCCC1)c1c-2c(O)nc2ccccc12" ; what inhibition value has been reported?
Outgoing: 0

Incoming: Try "COc1ccc2c(c1)/C(=N\OCCN1CCCC1)c1c-2cnc2ccccc12" next.
Outgoing: 80

Incoming: Field entry: "COc1ccc2c(c1)/C(=N\OCCN1CCCCC1)c1c-2cnc2ccccc12"
Outgoing: 50
